B1: Zinc finger homeobox protein 3, residues 2244 to 2299; numbered along this chain, Q15911 (parent)
chain: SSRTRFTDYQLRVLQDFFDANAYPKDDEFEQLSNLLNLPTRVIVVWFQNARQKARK

Variants of: B1
Assay: abundance fitness (aPCA) (normalised: wild type 0, dead -1); higher = more abundant; growth selection in yeast, the domain comes from the species named
Details: Homo sapiens
Assign abundance fitness to each entry below.
One number for each entry.

Reference set, count: 5
SSRTRFTDYQLRVLQDFFDANAYWKDDEFEQLSNLLNLPTRVIVVWFQNARQKARK
-0.381
SSRHRFTDYQLRVLQDFFDANAYPKDDEFEQLSNLLNLPTRVIVVWFQNARQKARK
-0.072
SSRTRTTDYQLRVLQDFFDANAYPKDDEFEQLSNLLNLPTRVIVVWFQNARQKARK
-0.433
SFRTRFTDYQLRVLQDFFDANAYPKDDEFEQLSNLLNLPTRVIVVWFQNARQKARK
-0.214
SSRTRFTDYQLRVLQDFFDANAYPKDDEFEQLSNLENLPTRVIVVWFQNARQKARK
-0.892

Hi, could you look up abundance fitness for each item in my list?
1. SSRTRFTDYQLRVLQDFFDANAYPKDDEFEQLSNLLNLSTRVIVVWFQNARQKARK
2. SSRTRFMDYQLRVLQDFFDANAYPKDDEFEQLSNLLNLPTRVIVVWFQNARQKARK
3. SSRTMFTDYQLRVLQDFFDANAYPKDDEFEQLSNLLNLPTRVIVVWFQNARQKARK
4. SSRTRFTDYQLRVLQDMFDANAYPKDDEFEQLSNLLNLPTRVIVVWFQNARQKARK
5. SSRDRFTDYQLRVLQDFFDANAYPKDDEFEQLSNLLNLPTRVIVVWFQNARQKARK
6. SSRTRFTDYQLRVLQDEFDANAYPKDDEFEQLSNLLNLPTRVIVVWFQNARQKARK
7. SSRTRFTDYQLRVLQDFFDANAYPKDDEFEQLSNLTNLPTRVIVVWFQNARQKARK
8. SSRIRFTDYQLRVLQDFFDANAYPKDDEFEQLSNLLNLPTRVIVVWFQNARQKARK

Reply:
0.035
-0.46
0.478
-0.039
0.117
-0.076
0.013
0.032
